Hey, just so you know, these numbers are from paper PMC7739374.

- Assay Details: Tryptic digestion, HPLC-based proteolytic stability assay
- Type: in vitro ADME
- Measurement Context: isolated enzyme trypsin
Measurement Type: half-life (h)
Quick reminder: number only, in h, skip the unit.

# input What value of half-life has been reported for the following molecule? CC[C@H](C)[C@@H](CC(=O)N[C@@H](Cc1ccc(O)cc1)C(=O)N[C@@H](CCCNC(=N)N)C(=O)N[C@@H](CC(C)C)C(=O)N[C@@H](CCC(=O)O)CC(=O)N[C@@H](CC(C)C)C(=O)N[C@@H](CC(C)C)C(=O)N[C@@H](CCCCN)C(=O)N[C@@H](C)CC(=O)N[C@@H](CCC(=O)O)C(=O)N[C@@H](CCC(=O)O)C(=O)N[C@@H](C)C(=O)N[C@@H](CC(N)=O)C(N)=O)NC(=O)CN1C/C=C/CCCC(=O)N[C@@H](Cc2ccccc2)C(=O)N[C@@H](CCC(=O)O)C1=O
# output 17.6
